Each entry below lists one item and its recorded Plant response rating, Pigweed value.
- Test system: pigweed (Amaranthus retroflexus)
- METHOD_SUMMARY: Test A preemergence, pigweed
- Assay type: in vivo
- CONDITION_SET: 31 g ai/ha, visual injury, 0 to 100 scale (0 no effect, 100 complete control), approx. 10 days
- From the text: Seeds of plant species selected from barnyardgrass (Echinochloa crus-galli), kochia (Bassia scoparia), ragweed (common ragweed, Ambrosia artemisiifolia), Ryegrass, Italian (Italian ryegrass, Lolium multiflorum), Foxtail, Giant (giant foxtail, Setaria faberi), and pigweed (Amaranthus retroflexus) were planted into a blend of loam soil and sand and treated preemergence with a directed soil spray using test chemicals formulated in a non-phytotoxic solvent mixture which included a surfactant. […]

{"MOLECULE": "Cc1cc(C)c(N2CC3(CCOCC3)OC2=O)cc1NS(=O)(=O)C(F)(F)F [Compound 156]", "TESTED_ON": "pigweed (Amaranthus retroflexus)", "Plant response rating, Pigweed": 80}
{"MOLECULE": "Cc1cc(C)c(C2=NOC3(C2)CC(C)CC(C)C3)cc1NS(=O)(=O)C(F)(F)F (single isomer, unassigned) [Compound 167]", "TESTED_ON": "pigweed (Amaranthus retroflexus)", "Plant response rating, Pigweed": 0}
{"MOLECULE": "CCC(=O)OCN(c1cc(C2=NOC3(CCCC3)C2)c(C)cc1C)S(=O)(=O)C(F)(F)F [Compound 144]", "TESTED_ON": "pigweed (Amaranthus retroflexus)", "Plant response rating, Pigweed": 70}
{"MOLECULE": "CSc1cc(-c2cc(NS(=O)(=O)C(F)(F)F)c(C)cc2C)c(=O)n(C)n1 [Compound 36]", "TESTED_ON": "pigweed (Amaranthus retroflexus)", "Plant response rating, Pigweed": 0}

----------
Each entry below lists one item and its recorded Plant response rating, Ragweed value.
- Tested on: ragweed (common ragweed, Ambrosia artemisiifolia)
- METHOD_SUMMARY: Test A postemergence, ragweed
- Assay type: in vivo
- CONDITION_SET: Postemergence, 125 g ai/ha; 0 to 100 scale (0 no effect, 100 complete control)

{"COMPOUND": "Cc1cc(Cl)c(N(S(=O)(=O)C(F)(F)F)S(=O)(=O)C(F)(F)F)cc1C1=NOC(C)(C)C1", "Plant response rating, Ragweed": 50}
{"COMPOUND": "COC1CCCN(C(=O)c2cc(NS(=O)(=O)C(F)(F)F)c(C)cc2C)C1 (stereo not drawn)", "Plant response rating, Ragweed": 50}
{"COMPOUND": "COC1CCN(C(=O)c2cc(NS(=O)(=O)C(F)(F)F)c(Cl)cc2C)CC1", "Plant response rating, Ragweed": 90}
{"COMPOUND": "CC(=O)N(c1cc(N2CCC3(CCCCC3)C2=O)c(C)cc1C)S(=O)(=O)C(F)(F)F", "Plant response rating, Ragweed": 60}
{"COMPOUND": "Cc1cc(C(F)(F)F)c(C(=O)N(C)C)cc1NS(=O)(=O)C(F)(F)F", "Plant response rating, Ragweed": 90}
{"COMPOUND": "Cc1cc(C)c(C(=O)N2CCC(C#N)CC2)cc1NS(=O)(=O)C(F)(F)F", "Plant response rating, Ragweed": 60}
{"COMPOUND": "Cc1cc(Cl)c(C2=NOC(C)(C)C2)cc1NS(=O)(=O)C(F)(F)F", "Plant response rating, Ragweed": 60}
{"COMPOUND": "Cc1cc(C)c(N(S(=O)(=O)C(F)(F)F)S(=O)(=O)C(F)(F)F)cc1C(=O)N1CCC(C#N)CC1", "Plant response rating, Ragweed": 70}
{"COMPOUND": "Cc1cc(C)c(N(S(=O)(=O)C(F)(F)F)S(=O)(=O)C(F)(F)F)cc1C1=NOC2(CCC(C)(C)CC2)C1", "Plant response rating, Ragweed": 0}
{"COMPOUND": "Cc1cc(C)c(C2=NOC3(C2)CC(C)CC(C)C3)cc1NS(=O)(=O)C(F)(F)F (single isomer, unassigned)", "Plant response rating, Ragweed": 20}
{"COMPOUND": "Cc1cc(Cl)c(N(S(=O)(=O)C(F)(F)F)S(=O)(=O)C(F)(F)F)cc1C1=NOC2(CCCCC2)C1", "Plant response rating, Ragweed": 60}
{"COMPOUND": "Cc1cc(Cl)c(NS(=O)(=O)C(F)(F)F)cc1C(=O)N1CCC(F)CC1", "Plant response rating, Ragweed": 80}
{"COMPOUND": "Cc1cc(C)c(C2=NOC3(C2)CC(C)OC(C)C3)cc1NS(=O)(=O)C(F)(F)F (single isomer, unassigned)", "Plant response rating, Ragweed": 40}
{"COMPOUND": "Cc1cc(C)c(C2=NOC3(CCCCCC3)C2)cc1NS(=O)(=O)C(F)(F)F", "Plant response rating, Ragweed": 20}
{"COMPOUND": "CCCCC(=O)OCN(c1cc(C2=NOC3(CCCC3)C2)c(C)cc1C)S(=O)(=O)C(F)(F)F", "Plant response rating, Ragweed": 10}
